The reported measurements were obtained from PubChem BioAssay AID372.

Molecular target: Gag-Pol polyprotein (Human immunodeficiency virus type 1 group M subtype B (isolate HXB2))
Test: RNase H inhibition, HIV 1 Gag Pol polyprotein, FRET biochemical assay, screening (AID 372)
Conditions: HIV-1 RT RNase H, FRET RNA/DNA substrate fluorescence; at 10 µM
Out of some 100,000 compounds screened, about 770 (0.77%) were called active. Rule as the data show it: active = inhibition above about 50%; inactive = the rest. Many of the other results were omitted from the sample, so actives are more common in it than they were.
Possible outcomes: true for active, false for inactive

{"columns": ["compound", "assigned label"],
 "data": [
  ["COc1ccc(C(=O)NC(=S)Nc2ccc(NC(=O)c3cc4ccccc4o3)c(OC)c2)cc1", "false"],
  ["Cc1ccc(NC(=O)Cc2ccc(Br)cc2)cc1", "false"],
  ["Cc1cc2ncn(CC(O)COc3ccc(C(=O)O)cc3)c2cc1C (configuration not stated)", "false"],
  ["Clc1ccc(Nc2nc(Oc3ccccc3)nc(N3CCOCC3)n2)cc1", "false"],
  ["O=C1NC(=S)N(c2ccccc2F)C(=O)/C1=C/c1ccc(-c2ccc(Cl)cc2)o1", "false"],
  ["COc1cc(NC(=S)NC(=O)c2ccc(C)c(C)c2)ccc1NC(=O)c1cc2ccccc2o1", "false"],
  ["Cc1ccc(Cl)cc1NC(=O)C(=O)NN=C1CCN(C)CC1", "false"],
  ["Cc1cc([N+](=O)[O-])ccc1-c1ccc(/C=C2\\C(=O)NC(=O)N(Cc3ccccc3)C2=O)o1", "true"],
  ["O=C1NC(=S)N(c2ccccc2F)C(=O)/C1=C/c1ccc(N2CCCC2)o1", "false"],
  ["Cc1ccc(/C=C2\\C(=O)NC(=S)N(c3ccc(Br)cc3C)C2=O)o1", "false"],
  ["CC(=O)N1c2ccccc2C(C)=CC1(C)C", "false"],
  ["CCN(CC)C(=O)c1sc(NC(=O)c2cc(OC)cc(OC)c2)c(C(=O)OC)c1C", "false"],
  ["Cc1cc([N+](=O)[O-])ccc1-c1ccc(/C=C2/C(=O)NC(=O)N(c3ccccc3)C2=O)o1", "false"],
  ["NS(=O)(=O)c1ccc(Nc2nc(-c3ccccn3)cs2)cc1", "false"],
  ["COc1cc(NC(=S)NC(=O)c2cccc(F)c2)ccc1NC(=O)c1cc2ccccc2o1", "true"],
  ["COc1cc(NC(=S)NC(=O)c2cccc(Cl)c2)ccc1NC(=O)c1cc2ccccc2o1", "false"],
  ["Cc1ccc(S(=O)(=O)/N=C2/C=C(Cl)C(=O)c3ccccc32)cc1", "false"],
  ["COc1cc(NC(=S)NC(=O)c2ccc(Cl)cc2)ccc1NC(=O)c1cc2ccccc2o1", "true"],
  ["Cc1ccc(/C=C2\\C(=O)NC(=S)N(c3ccc(Br)cc3)C2=O)o1", "false"],
  ["O=C(CSCc1ccccc1Cl)Nc1cccc(Br)c1", "false"],
  ["Cc1ccc([N+](=O)[O-])cc1-c1ccc(/C=C2/C(=O)NC(=O)N(C)C2=O)o1", "false"],
  ["O=C1C=CC(=NS(=O)(=O)c2ccc(F)cc2)C=C1", "false"],
  ["O=C1NC(=S)NC(=O)C1=Cc1cccc(OC(=O)c2ccc(Cl)cc2)c1", "false"],
  ["Cc1ccc(/C(O)=C/c2nc3ccccc3oc2=O)o1", "true"],
  ["O=C1NC(=O)N(c2ccccc2)C(=O)/C1=C\\c1ccc(-c2ccc([N+](=O)[O-])cc2)o1", "false"],
  ["Cc1nc(/N=C/c2ccc(Br)cc2)sc1C", "false"],
  ["CC(C)C(=O)NS(=O)(=O)c1ccc(N)cc1", "false"],
  ["Cc1c(Cc2ccccc2)c(=O)oc2c(C)c(OS(C)(=O)=O)ccc12", "false"],
  ["CCC(C(=O)N1c2ccccc2C(C)=CC1(C)C)c1ccccc1 (configuration not stated)", "true"],
  ["Clc1ccc(Nc2nc(Nc3ccc(Cl)cc3)nc(N3CCOCC3)n2)cc1", "false"],
  ["O=C(Nc1ccc(NC(=O)c2cc([N+](=O)[O-])cc([N+](=O)[O-])c2)cc1)c1cccc(Br)c1", "false"],
  ["CC(C)(C)NC(=O)C(=O)N/N=C/c1cccc2ccccc12", "false"],
  ["O=P(O)(OC(c1ccccc1)C(F)(F)F)c1ccccc1 (configuration not stated)", "false"],
  ["Cc1cc(Br)ccc1N1C(=O)/C(=C/c2cccs2)C(=O)NC1=S", "false"],
  ["Cc1ccc(N2C(=O)/C(=C/c3ccco3)C(=O)NC2=S)cc1", "false"],
  ["O=C1NC(=O)N(Cc2ccccc2)C(=O)/C1=C/c1ccc(-c2cccc([N+](=O)[O-])c2)o1", "false"],
  ["O=C1NC(=O)N(Cc2ccccc2)C(=O)/C1=C/c1ccc(-c2ccc([N+](=O)[O-])cc2)o1", "true"],
  ["O=c1[nH]c(=O)n(-c2ccccc2Cl)c(O)c1C=C1C=CC=N1", "false"],
  ["COc1cccc(/C=N\\NC(=O)CNc2ccccc2C)c1", "false"],
  ["Cc1cccc(N2CCN(C(=O)c3ccc(Br)cc3)CC2)c1C", "false"],
  ["O=C1NC(=S)N(c2ccc(Cl)cc2)C(=O)/C1=C\\c1ccc(Cl)s1", "false"],
  ["Cc1cc([N+](=O)[O-])ccc1-c1ccc(/C=C2/C(=O)NC(=O)N(Cc3ccco3)C2=O)o1", "false"]
]}
